# MEASUREMENT DESCRIPTION: qHTS profiling of the MIPE4 collection as inhibitors of Plasmodium falciparum (DD2) proliferation (AID 743345)
# CONDITION DESCRIPTION: P. falciparum Dd2 in erythrocytes, SYBR Green DNA, 72 h; at 28.5 µM (top of the series) unless noted
Let's look at some compounds and their measured parasite growth remaining, % of DMSO control (lower = more inhibition).
Express your answer in %, writing the number without its unit.

Some compounds with known parasite growth remaining, % of DMSO control (lower = more inhibition) results, for comparison:
parasite growth remaining, % of DMSO control (lower = more inhibition) in this record for Nc1nc(Cl)nc2c1ncn2[C@@H]1O[C@H](CO)[C@@H](O)[C@H]1F : 97.5

parasite growth remaining, % of DMSO control (lower = more inhibition) in this record for CC1CCN(c2cc(N3CCN(C)CC3)ccc2NC(=O)c2cc(C#N)c[nH]2)CC1 : 80.6

parasite growth remaining, % of DMSO control (lower = more inhibition) in this record for CCN(CC)CCCCNc1nc2cc(Cl)c(Cl)cc2nc1-c1ccc(-c2cccs2)s1 : 10.5

---
parasite growth remaining, % of DMSO control (lower = more inhibition) in this record for O=C(c1ccc(C(=O)N2CCC(N3CCCC3)CC2)c(Nc2ccccc2)c1)N1CCC(N2CCCC2)CC1 : 66.3

parasite growth remaining, % of DMSO control (lower = more inhibition) in this record for COc1ccc(-c2cc3nccn3c(Nc3ncccc3C(N)=O)n2)cc1OC : 9.28

parasite growth remaining, % of DMSO control (lower = more inhibition) in this record for O=C(O)CCNc1cc(N2CCc3ccccc3CC2)nc(-c2ccccn2)n1 : 48.3
